Measured response by item
- Target Of Assay: tubulin covalently linked to a biotinylated stathmin-like peptide
- Assay Procedure: ELISA (off-rate estimation)
- Protocol Conditions: chain shown with the change; incubation with 100 nM soluble tubulin to prevent rebinding; 2 nM biotinylated peptide-coupled tubulin for coating; parent: est. 0.046; read off a plot
Just the number in AU, nothing appended.

Known results for binders:
Binder | response [AU]
DARPin D1 H118R (protein) MRGSHHHHHHGSDLGKKLLEAARAGQDDEVRILMANGADVNATDASGLTPLHLAATYGHLEIVEVLLKHGADVNAIDIMGSTPLHLAALIGHLEIVEVLLKHGADVNAVDTWGDTPLRLAAIMGHLEIVEVLLKHGADVNAQDKFGKTAFDISIDNGNEDLAEILQKLN | 0.45
DARPin D1 H118R; I152T; N158S (protein) MRGSHHHHHHGSDLGKKLLEAARAGQDDEVRILMANGADVNATDASGLTPLHLAATYGHLEIVEVLLKHGADVNAIDIMGSTPLHLAALIGHLEIVEVLLKHGADVNAVDTWGDTPLRLAAIMGHLEIVEVLLKHGADVNAQDKFGKTAFDTSIDNGSEDLAEILQKLN | 0.57

As a next step, examine the binder that follows.
Task: Query (binder): DARPin D1 I152T; N158S (protein) MRGSHHHHHHGSDLGKKLLEAARAGQDDEVRILMANGADVNATDASGLTPLHLAATYGHLEIVEVLLKHGADVNAIDIMGSTPLHLAALIGHLEIVEVLLKHGADVNAVDTWGDTPLHLAAIMGHLEIVEVLLKHGADVNAQDKFGKTAFDTSIDNGSEDLAEILQKLN ; field requested: response
Result: 0.27
